Values from patent US20240327356A1

Please provide measured EC50 for the entries that follow.
target-of-assay: KRAS^G12D-FMe.RAF1^RBDCRD complex (Homo sapiens, UniProt P01116, G12D)
test-name: SHG assay: binding to bilayer-tethered KRAS G12D/RAF1 complex
condition-set: GppNHp-loaded complex on PS bilayer; compound 0.027-40 μM, monitored over 60 min

Query: Output EC50 of N#CC1(C(=O)NCc2cnc(-c3ccc(Cl)c(C(F)F)c3)nc2N2CCC(CN)C2)CC1 (centres unmarked)
Response: 10 to 50 µM

Query: For the molecule "Cc1ccc(-c2ncc(CNC(=O)C3(F)CC3)c(N3CCNCC3)n2)cc1Cl" , give its reported EC50.
Response: 1 to 10 µM

Query: Please look at this molecule and report its EC50: CN(C)CC1CCN(c2nc(-c3ccc(Cc4ccccc4)c(Cl)c3)ncc2CNC(=O)C2(C#N)CC2)C1 (centres unmarked)
Response: 1 to 10 µM

Query: For Cc1ccc(-c2ncc(CNC(=O)C3(CO)CC3)c(N3CCC(CN)C3)n2)cc1Cl (centres unmarked) , write its EC50.
Response: 10 to 50 µM

Query: Fill in EC50 for record Cc1ccc(-c2ncc(OCC(=O)NC3CC3)c(N3CCC(CN)C3)n2)cc1Cl (centres unmarked)
Response: 1 to 10 µM

Query: Retrieve EC50 measured for NCc1cnc(-c2ccc(Cl)c(C(F)(F)F)c2)nc1N1CCC(CN)C1 (centres unmarked) and print it.
Response: 1 to 10 µM

Query: Could you please provide reported EC50 for "NCCOc1nc(-c2ccc(Cl)c(C(F)(F)F)c2)ncc1C1=CCNC1" ? Thanks!
Response: 0.1 to 1 µM

Query: Name the recorded EC50 of the item Cc1ccc(-c2ncc(CNC(=O)C3(C#N)CC3)c(N3CCC(F)(CN)C3)n2)cc1Cl (centres unmarked) in your answer.
Response: 1 to 10 µM

Query: Give the reported value of EC50 for this record: "CN1CCN(c2nc(-c3ccc(Cl)c(C(F)(F)F)c3)ncc2CNC(=O)C2(C#N)CC2)CC1"
Response: 1 to 10 µM

Query: Supply measured EC50 of N#CC1(C(=O)NCc2cnc(-c3ccc(Cl)c(C(F)(F)F)c3)nc2N2CCC(CN)C2)CC1 (centres unmarked) in your reply.
Response: 1 to 10 µM

Query: Kindly indicate its recorded EC50. Item: NCC1CCN(c2nc(-c3ccc(Cl)c(C(F)(F)F)c3)ncc2CNC(=O)C2(F)CC2)C1 (centres unmarked)
Response: 1 to 10 µM

Query: Complete the entry with EC50 for Cc1c(F)cc(-c2ncc(CNC(=O)C3(C#N)CC3)c(N3CCC(CN)C3)n2)cc1[N+](=O)[O-] (centres unmarked)
Response: 1 to 10 µM

Query: Identify EC50 associated with the molecule "Cc1ccc(-c2ncc(CNC(=O)C3(F)CC3)c(N3CCC(N)CC3)n2)cc1Cl"
Response: 1 to 10 µM

Query: Specify EC50 for "N[C@@H]1CN(c2nc(-c3ccc(Cl)cc3NC(=O)C3CC3)ncc2C2=CCNC2)C[C@H]1O" and stop.
Response: 10 to 50 µM

====

target-of-assay: KRAS^G12D-FMe.RAF1^RBDCRD complex (Homo sapiens, UniProt P01116, G12D)
test-name: SHG assay: binding to bilayer-tethered KRAS G12D/RAF1 complex
condition-set: GppNHp-loaded complex on PS bilayer; compound 0.027-40 μM, monitored over 60 min
Please go through the items and note down their EC50.

Query: Note EC50 for the compound shown: NCC1CCN(c2nc(-c3ccc(C(F)(F)F)cc3F)ncc2CNC(=O)Nc2ccccc2)C1 (centres unmarked)
Response: 1 to 10 µM

Query: Item N#CC1(C(=O)NCc2cnc(-c3ccc(Cl)c(C(F)(F)F)c3)nc2C2=CCC(N)CC2)CC1 (centres unmarked) : provide EC50
Response: 1 to 10 µM

Query: Find the measured EC50 of "NC[C@H]1CCCN1c1nc(-c2ccc(Cl)c(C(F)(F)F)c2)ncc1C1=CCNC1" and report it.
Response: 1 to 10 µM

Query: Return reported EC50. Input compound: N#CC1(C(=O)NCc2cnc(-c3cc(F)c(C(F)(F)F)c(F)c3)nc2N2CCC(CN)C2)CC1 (centres unmarked)
Response: 1 to 10 µM

Query: Quote EC50 reported for Cc1ccc(-c2ncc(CN3CCOC3=O)c(N3CCC(CN)C3)n2)cc1Cl (centres unmarked) please.
Response: 1 to 10 µM

Query: Quickly give me recorded EC50 for CN(C)CC1CCN(c2nc(-c3cc(Cl)cc(-c4ccccc4)c3)ncc2CNC(=O)C2(C#N)CC2)C1 (centres unmarked)
Response: 1 to 10 µM

Query: For Cc1ccc(-c2ncc(CNC(=O)C3(C#N)CC3)c(C3=CCC(N)CC3)n2)cc1Cl (centres unmarked) , write its EC50.
Response: 1 to 10 µM

Query: Tell me EC50 reported for Cc1ccc(-c2ncc(CNC(=O)C3(C)COC3)c(N3CCC(CN)C3)n2)cc1Cl (centres unmarked)
Response: 10 to 50 µM

Query: Given the compound C=C(C)C(=O)NCc1cnc(-c2ccc(C)c(Cl)c2)nc1N1CCC(CN)C1 (centres unmarked) , write its reported EC50.
Response: 1 to 10 µM

Query: Please look at this compound and report its EC50: CCOC(=O)NCc1cnc(-c2ccc(C)c(Cl)c2)nc1N1CCC(CN)C1 (centres unmarked)
Response: 10 to 50 µM

Query: Name the recorded EC50 of the item NCC1CCN(c2nc(-c3ccc(C(F)(F)F)c(Cl)c3)ncc2N2CCCC2=O)C1 (centres unmarked) in your answer.
Response: 1 to 10 µM

Query: For the compound N#Cc1cc(-c2ncc(CNc3ccccc3)c(N3CCC(CN)C3)n2)ccc1C(F)(F)F (centres unmarked) , report EC50.
Response: 1 to 10 µM

Query: Read off the recorded EC50 for "NC[C@@H]1CCN(c2nc(-c3ccc(Cl)c(C(F)(F)F)c3)ncc2C2=CCNC2)C1"
Response: 0.1 to 1 µM

Query: Return EC50 (reported value) for this compound: NCC1CCN(c2nc(-c3ccc(C(F)(F)F)c(Cl)c3)ncc2N2CCNC2=O)C1 (centres unmarked)
Response: 1 to 10 µM

Query: Give a short answer stating reported EC50 for "Cc1ccc(-c2ncc(CNC(=O)C3(C#N)CC3)c(N3CC[C@@H](CN)C3)n2)cc1Cl" .
Response: 1 to 10 µM

Query: Entry "Cc1ccc(-c2ncc(CNC(=O)C3(C#N)CC3)c(N3CC[C@H](CN)C3)n2)cc1Cl" needs its EC50 filled in; supply it.
Response: 1 to 10 µM

Query: Hello, please tell me recorded EC50 for this one: COC(=O)NCc1cnc(-c2ccc(C)c(Cl)c2)nc1N1CCC(CN)C1 (centres unmarked)
Response: 1 to 10 µM

Query: Input "N#CC1(C(=O)NCc2cnc(-c3ccc(Cl)c(C(F)(F)F)c3)nc2N2CCC[C@H]2CN)CC1" , output reported EC50.
Response: 10 to 50 µM

Query: Identify the reported EC50 for the following entry. N#CC1(C(=O)NCc2cnc(-c3ccc(Cl)c(C(F)(F)F)c3)nc2OC2CC(N)C2)CC1 (centres unmarked)
Response: 1 to 10 µM

Query: Give me measured EC50, please, for this compound: Cc1ccc(-c2ncc(CNC(=O)C3CN(C)C3)c(N3CCC(CN)C3)n2)cc1Cl (centres unmarked)
Response: 1 to 10 µM

Query: Answer with the recorded EC50 of "NC[C@@H]1CCN(c2nc(-c3ccc(Cl)c(C(F)(F)F)c3)ncc2C2CC2)C1" only.
Response: 1 to 10 µM

Query: Provide measured EC50 value, entry: NCC1CCN(c2nc(-c3ccc(Cl)c(C(F)(F)F)c3)ncc2CNC(=O)c2ccccc2)C1 (centres unmarked)
Response: 1 to 10 µM

Query: Give me measured EC50, please, for this compound: Cc1ccc(-c2ncc(CNC(=O)C3(C#N)CCC3)c(N3CCC(CN)C3)n2)cc1Cl (centres unmarked)
Response: 1 to 10 µM

Query: Recall and state the measured EC50 for "N#CC1(C(=O)NCc2cnc(-c3ccc(Cl)c(C(F)(F)F)c3)nc2N2CCNCC2)CC1" .
Response: 1 to 10 µM

Query: Assign EC50 to the following record: NCC1CCN(c2nc(-c3ccc(Cl)c(C(F)(F)F)c3)ncc2CNCCO)C1 (centres unmarked)
Response: 1 to 10 µM

Query: Using known records, supply EC50 for "N#CC1(C(=O)NCc2cnc(-c3ccc(Cl)c(C(F)(F)F)c3)nc2N2CCC(N)CC2)CC1"
Response: 1 to 10 µM

Query: Report EC50, nothing else, for this compound: CN(C)CC1CCN(c2nc(-c3cc(Cl)cc(/C=C/c4ccccc4)c3)ncc2CNC(=O)C2(C#N)CC2)C1 (centres unmarked)
Response: 1 to 10 µM

Query: Output measured EC50 for this item: CN1CCC(Oc2nc(-c3ccc(Cl)c(C(F)(F)F)c3)ncc2CNC(=O)C2(C#N)CC2)C1 (centres unmarked)
Response: 10 to 50 µM

Query: Using known records, supply EC50 for Cc1ccc(-c2ncc(CNc3ccccc3)c(N3CCC(CN)C3)n2)cc1Cl (centres unmarked)
Response: 1 to 10 µM

Query: Given C#CC1(C(=O)NCc2cnc(-c3ccc(Cl)c(C(F)(F)F)c3)nc2N2CCC(CN)C2)CC1 (centres unmarked) , respond with its EC50.
Response: 1 to 10 µM

Query: For the compound Cc1ccc(-c2ncc(NS(=O)(=O)c3ccccc3)c(N3CCC(CN)C3)n2)cc1Cl (centres unmarked) , give its reported EC50.
Response: 1 to 10 µM

Query: Give a short answer stating reported EC50 for N#CC1(C(=O)NCc2cnc(-c3ccc(C(F)(F)F)cc3F)nc2N2CCC(CN)C2)CC1 (centres unmarked) .
Response: 10 to 50 µM
